test system: hMPV-GFP virus; experiment: microbe, parasite or virus in culture; type: cell-based, human metapneumovirus; details: human metapneumovirus, Vero, 48 h, read-out: hMPV EC50, VERO cells infected with hMPV-GFP, 48 hrs, GFP-expressing cells counted
pEC50: −log10 of the molar value.
RESULT_TYPE: pEC50

Request: // returns reported pEC50 for input Cc1nc(-c2ncccn2)sc1C(=O)N1C[C@@H]2[C@H]1C[C@H]2Oc1cc(C(C)(C)N)cc(-c2ccc(F)cc2)n1 (single isomer, unassigned)
Response: < 7.00

Request: // returns reported pEC50 for input Cc1nc(-c2ncccn2)sc1C(=O)N1C[C@@H]2[C@H](C1)[C@H]2Oc1cc(C(C)(C)N)cc(-c2cc(F)c(F)c(F)c2)n1
Response: 7.00 to 8.00

Request: // returns reported pEC50 for input CC(C)(N)c1cc(O[C@H]2[C@@H]3CN(C(=O)c4cn(-c5ncccn5)nc4CO)C[C@@H]32)nc(-c2ccc(F)c(F)c2)c1
Response: < 7.00

Request: // returns reported pEC50 for input Cc1nc(-c2ncccn2)sc1C(=O)N1C[C@@H]2[C@H](C1)[C@H]2Oc1cc(-c2ccc(F)cc2)cc(C(C)(C)N)n1
Response: < 7.00

Request: // returns reported pEC50 for input CC(C)(N)c1cc(O[C@@H]2C[C@@H]3[C@H]2CN3C(=O)c2cn(-c3ncccn3)nc2C2CC2)nc(-c2ccc(F)cc2)c1 (single isomer, unassigned; enantiomer 2)
Response: < 7.00

Request: // returns reported pEC50 for input Cc1nn(-c2ncccn2)cc1C(=O)N1C[C@H]2[C@H](Oc3cc(C(C)(C)N)cc(-c4ccc(F)cc4)n3)[C@@]2(C)C1 (single isomer, unassigned; enantiomer 1) [Example 107A]
Response: < 7.00

Request: // returns reported pEC50 for input Cn1nc(-c2ncccn2)cc1C(=O)N1C[C@@H]2[C@H]1C[C@H]2Oc1cc(C(C)(C)N)cc(-c2ccc(F)cc2)n1 (single isomer, unassigned; enantiomer 2)
Response: < 7.00

Request: // returns reported pEC50 for input Cc1nn(-c2ncccn2)cc1C(=O)N1C[C@@H]2[C@H](C1)[C@H]2Oc1cc(C(C)(C)N)cc(-c2ccc(F)cc2)n1
Response: < 7.00

Request: // returns reported pEC50 for input Cc1nc(-c2ncccn2)sc1C(=O)N1C[C@H]2[C@H](Oc3cc(C(C)(C)N)cc(-c4ccc(F)cc4)n3)[C@@]2(C)C1 (single isomer, unassigned; enantiomer 1) [Example 103A]
Response: 7.00 to 8.00

Request: // returns reported pEC50 for input Cn1nc(-c2ncccn2)cc1C(=O)N1C[C@H]2[C@H](Oc3cc(C(C)(C)N)cc(-c4ccc(F)cc4)n3)[C@@]2(C)C1 (single isomer, unassigned; enantiomer 1) [Example 104A]
Response: < 7.00

Request: // returns reported pEC50 for input Cc1nn(-c2ncccn2)cc1C(=O)N1C[C@@H]2[C@H](C1)[C@H]2Oc1cc(C(C)(C)N)c(F)c(-c2ccc(F)cc2)n1
Response: < 7.00

---

tested on: RSV-A2-GFP virus; test: microbe, parasite or virus in culture; format: cell-based, Human Respiratory Syncytial Virus; details: Calu-1 cells infected with RSV-A2-GFP, 96 hrs, GFP-expressing cells counted; read-out: RSV EC50
pEC50: −log10 of the molar value.
RESULT_TYPE: pEC50

Request: // returns reported pEC50 for input Cc1nn(-c2ncccn2)cc1C(=O)N1C[C@@H]2[C@H](C1)[C@H]2Oc1cc(C(C)(C)N)cc(-c2cc(F)c(F)c(F)c2)n1 [Example 82]
Response: > 8.00

Request: // returns reported pEC50 for input Cc1nc(-c2ccccn2)sc1C(=O)N1C[C@@H]2[C@H](C1)[C@H]2Oc1cc(C(C)(C)N)cc(-c2ccc(F)cc2)n1 [Example 12]
Response: > 8.00

Request: // returns reported pEC50 for input Cc1ccc(-c2cc(C(C)(C)N)cc(O[C@H]3[C@@H]4CN(C(=O)c5sc(-c6ncccn6)nc5C)C[C@@H]43)n2)cc1F [Example 37]
Response: > 8.00

---

Can you tell me pEC50 for the items I'm about to list?
test system: hMPV-GFP virus; experiment: microbe, parasite or virus in culture; assay type: cell-based, human metapneumovirus; details: read-out: hMPV EC50; VERO cells infected with hMPV-GFP, 48 hrs, GFP-expressing cells counted
pEC50: −log10 of the molar value.

Request: // returns reported pEC50 for input Cn1nc(-c2ncccn2)cc1C(=O)N1C[C@H]2[C@H](Oc3cc(C(C)(C)N)cc(-c4ccc(F)cc4F)n3)[C@@]2(C)C1 (single isomer, unassigned; enantiomer 2) [Example 108B]
Response: < 7.00

Request: // returns reported pEC50 for input Cc1nn(-c2ncccn2)cc1C(=O)N1C[C@H]2[C@H](Oc3cc(C(C)(C)N)cc(-c4ccc(F)cc4F)n3)[C@@]2(C)C1 (single isomer, unassigned; enantiomer 2) [Example 109B]
Response: 7.00 to 8.00

Request: // returns reported pEC50 for input Cc1nn(-c2ncccn2)cc1C(=O)N1C[C@H]2[C@H](Oc3cc(C(C)(C)N)cc(-c4ccc(F)cc4F)n3)[C@@]2(C)C1 (single isomer, unassigned; enantiomer 1) [Example 109A]
Response: < 7.00

Request: // returns reported pEC50 for input Cc1nn(-c2ncccn2)cc1C(=O)N1C[C@H]2[C@H](Oc3cc(C(C)(C)N)cc(-c4ccc(F)c(F)c4)n3)[C@@]2(C)C1 (single isomer, unassigned; enantiomer 2) [Example 106B]
Response: 7.00 to 8.00

Request: // returns reported pEC50 for input Cc1nn(-c2ncccn2)cc1C(=O)N1C[C@H]2[C@H](Oc3cc(C(C)(C)N)cc(-c4ccc(C(F)(F)F)cc4)n3)[C@@]2(C)C1 (single isomer, unassigned; enantiomer 2) [Example 111B]
Response: 7.00 to 8.00

---

Can you tell me EC50 for the items I'm about to list?
System: hMPV-GFP virus
Experiment: microbe, parasite or virus in culture
Assay type: cell-based, human metapneumovirus
Conditions: human metapneumovirus, Vero, 48 h, read-out: hMPV EC50, VERO cells infected with hMPV-GFP, 48 hrs, GFP-expressing cells counted
Protocol: GFP expressing rgHMPV #3 p3 was generated in Dr. Buchholz's lab (Biacchesi S. et al., J Virol. 2007 June; 81(11): 6057-6067) and propagated in VERO cells (ATCC Cat #CCL-81) with a Multiplicity of Infection (MOI) of 0.1. Virus was harvested 4 days after infection by collecting cultured material and was freeze-thaw cycled in liquid nitrogen twice. […] Virus titer was determined by performing titration test in 96-well plates and calculate approximate virus titer using GFP event/well data. […]

Request: // returns reported EC50 for input CCc1nn(-c2ncccn2)cc1C(=O)N1C[C@@H]2[C@H]1C[C@H]2Oc1cc(C(C)(C)N)cc(-c2ccc(F)cc2)n1 (single isomer, unassigned; enantiomer 2)
Response: > 100 nM

Request: // returns reported EC50 for input Cc1nn(-c2ncccn2)cc1C(=O)N1C[C@@H]2[C@H](C1)[C@H]2Oc1cc(C(C)(C)N)cc(-n2ncc3c(Cl)cccc32)n1
Response: > 100 nM

Request: // returns reported EC50 for input Cc1nc(-c2ncccn2)sc1C(=O)N1C[C@@H]2[C@H](C1)[C@H]2Oc1cc(C(C)(N)CO)cc(-c2ccc(F)cc2)n1 (single isomer, unassigned; enantiomer 1) [Example 113A]
Response: > 100 nM

Request: // returns reported EC50 for input Cc1nc(-c2ncccn2)sc1C(=O)N1C[C@@H]2[C@H](C1)[C@H]2Oc1cc(C(C)(C)N)cc(Cc2ccc(F)cc2)n1
Response: > 100 nM

Request: // returns reported EC50 for input Cc1nc(-c2ncccn2)sc1C(=O)N1C[C@@H]2[C@H](C1)[C@H]2Oc1cc(C(C)(C)N)cc(-c2ccc(F)cc2)n1
Response: 10 to 100 nM

Request: // returns reported EC50 for input COc1nn(-c2ncccn2)cc1C(=O)N1C[C@@H]2[C@H](C1)[C@H]2Oc1cc(C(C)(C)N)cc(-c2ccc(F)cc2)n1
Response: > 100 nM

Request: // returns reported EC50 for input Cc1nc(-c2ncccn2)oc1C(=O)N1C[C@@H]2[C@H](C1)[C@H]2Oc1cc(C(C)(C)N)cc(-c2ccc(F)cc2)n1
Response: > 100 nM

Request: // returns reported EC50 for input CC(C)(N)c1cc(O[C@H]2[C@@H]3CN(C(=O)c4sc(-c5ncccn5)nc4C(F)F)C[C@@H]32)nc(-c2ccc(F)cc2)c1
Response: 10 to 100 nM

Request: // returns reported EC50 for input CC(C)(N)c1cc(O[C@H]2[C@@H]3CN(C(=O)c4cnc(-c5ncccn5)s4)C[C@@H]32)nc(-c2ccc(F)cc2)c1
Response: > 100 nM

Request: // returns reported EC50 for input Cn1nc(-c2ncccn2)cc1C(=O)N1C[C@@H]2[C@H](C1)[C@H]2Oc1cc(C(C)(C)N)cc(-n2ccc3c(F)cccc32)n1
Response: 10 to 100 nM

Request: // returns reported EC50 for input Cc1nn(-c2ncccn2)cc1C(=O)N1C[C@@H]2[C@H](C1)[C@H]2Oc1cc(C(C)(C)N)cc(-c2ccc(F)c(F)c2)n1
Response: 10 to 100 nM

Request: // returns reported EC50 for input CC(C)(N)c1cc(O[C@H]2[C@@H]3CN(C(=O)c4cn(-c5ncccn5)nc4Cn4nccn4)C[C@@H]32)nc(-c2ccc(F)cc2)c1
Response: > 100 nM

Request: // returns reported EC50 for input Cn1nc(-c2ncccn2)cc1C(=O)N1C[C@H]2[C@H](Oc3cc(C(C)(C)N)cc(-c4ccc(F)cc4F)n3)[C@@]2(C)C1 (single isomer, unassigned; enantiomer 1) [Example 108A]
Response: > 100 nM

Request: // returns reported EC50 for input Cn1nc(-c2ncccn2)cc1C(=O)N1C[C@@H]2[C@H](C1)[C@H]2Oc1cc(C(C)(C)N)cc(-c2ccc(F)c(F)c2)n1
Response: > 100 nM
